assayed_system: human PAR4 (Homo sapiens, UniProt Q96RI0)
Sequence (Q96RI0 18-385): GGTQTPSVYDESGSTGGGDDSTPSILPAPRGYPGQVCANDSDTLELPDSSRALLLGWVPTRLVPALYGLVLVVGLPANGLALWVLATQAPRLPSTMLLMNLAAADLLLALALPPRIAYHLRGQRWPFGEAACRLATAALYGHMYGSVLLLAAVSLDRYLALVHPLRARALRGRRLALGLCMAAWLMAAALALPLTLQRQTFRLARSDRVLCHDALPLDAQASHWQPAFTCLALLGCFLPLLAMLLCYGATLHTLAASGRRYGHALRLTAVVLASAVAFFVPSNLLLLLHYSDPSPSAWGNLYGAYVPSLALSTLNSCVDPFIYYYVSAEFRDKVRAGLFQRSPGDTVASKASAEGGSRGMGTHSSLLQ
assay_details: PAR4 FLIPR assay: antagonism of agonist-peptide-induced calcium mobilization in PAR4-expressing HEK293 cells
conditions: H-Ala-Phe(4-F)-[…]NH2-induced intracellular calcium mobilization, 11-point curves
pIC50: −log10 of the molar value.
observed_property: pIC50

COc1cnc2c(-c3nc4cc(F)c(OC[C@@H](C)OC(=O)Nc5cnc(O[C@H](C)CO)nc5)nc4s3)cc(C)cc2n1 ... 8.74

1. COc1cnc2c(-c3nc4cc(F)c(O[C@@H](C)[C@@H](C)OC(=O)Nc5cccnc5)cc4s3)cc(C)cc2n1
2. COc1cnc2c(-c3nc4cc(F)c(OC[C@@H](C)OC(=O)Nc5ccc(CC(C)(C)O)nc5)cc4s3)cc(C)cc2n1
3. COc1cnc2c(-c3cc4cc(OCCOC(=O)Nc5ccnc(C)c5)c(F)cc4o3)cc(CO)cc2n1
4. Cc1cc(-c2cn3ccccc3n2)c2ncc(OC(F)F)nc2c1
Task item: List these items ordered by pIC50, big to small. Please write the labels in the order that was asked for.
Reply: 2, 3, 1, 4
